So I've got a bunch of molecules here, and I need their MTD values.
experiment: Acute toxicity in iv dosed BALBc/AnNHsd mouse; type: organism-based; conditions: in vivo
Write the quantity with the unit trailing the number.

Completed entries (count: 2):
- Molecule: "Cc1c(C)c2c(c(C)c1CCCCCCN)CCC(C)(COc1ccc(/C=C3\\SC(=O)N(C)C3=O)cc1)O2.O=C(O)C(F)(F)F (racemic)"
  Measured result: "65.5 mg/kg"
- Molecule: "Cc1c(C)c2c(c(C)c1O)CCC(C)(COc1ccc(/C=C3\\SC(=O)NC3=O)cc1)O2 (stereo not drawn)"
  Measured result: "34 mg/kg"

Proceed to the following item.
Could you please provide reported MTD for Cc1c(C)c2c(c(C)c1CCCCCCN)CCC(C)(COc1ccc(/C=C3\SC(=O)NC3=O)cc1)O2.O=C(O)C(F)(F)F (racemic) ? Thanks! 34 mg/kg
